Every entry's value here was drawn from patent US20040043420A1.

Target: T1, Gal4 transcriptional activation domain (AD) fused in frame with AR (yeast, UniProt P10275 1-920, limits assumed); note: unit not given here
T1 sequence (looked up): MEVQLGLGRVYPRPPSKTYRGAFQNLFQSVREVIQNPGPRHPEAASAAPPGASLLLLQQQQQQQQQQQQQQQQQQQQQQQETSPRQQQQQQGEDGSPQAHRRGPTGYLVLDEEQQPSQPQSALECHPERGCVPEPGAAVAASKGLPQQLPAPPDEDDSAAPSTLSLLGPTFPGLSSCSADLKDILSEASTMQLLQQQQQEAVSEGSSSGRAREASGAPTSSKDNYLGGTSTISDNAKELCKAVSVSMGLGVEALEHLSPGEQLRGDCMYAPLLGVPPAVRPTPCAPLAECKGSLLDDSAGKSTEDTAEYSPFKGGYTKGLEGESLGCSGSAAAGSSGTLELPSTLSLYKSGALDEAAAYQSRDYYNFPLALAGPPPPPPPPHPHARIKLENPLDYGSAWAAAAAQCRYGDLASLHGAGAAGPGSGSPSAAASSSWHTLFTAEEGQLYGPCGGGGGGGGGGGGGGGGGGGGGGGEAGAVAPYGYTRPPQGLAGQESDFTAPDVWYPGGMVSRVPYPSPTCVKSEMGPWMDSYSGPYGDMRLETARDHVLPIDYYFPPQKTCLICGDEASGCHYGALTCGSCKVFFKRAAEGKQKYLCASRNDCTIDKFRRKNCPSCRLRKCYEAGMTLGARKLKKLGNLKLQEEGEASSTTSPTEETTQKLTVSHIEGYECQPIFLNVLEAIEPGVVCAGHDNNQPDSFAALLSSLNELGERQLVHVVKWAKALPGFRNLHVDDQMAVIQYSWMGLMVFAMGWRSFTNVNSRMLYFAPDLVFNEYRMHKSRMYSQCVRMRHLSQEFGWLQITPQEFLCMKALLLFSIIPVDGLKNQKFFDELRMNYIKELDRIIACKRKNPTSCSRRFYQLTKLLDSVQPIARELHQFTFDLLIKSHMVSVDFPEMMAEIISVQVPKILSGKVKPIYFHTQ
Assay: cell-based or functional assay
Property: β-galactosidase activity (yeast two-hybrid), CPA

# Binder, Observed Result
rows = [
    ("B18C4 (peptide) MKLLSSIEQACDICRLKKLKCSKEKPKCAKCLKNNWECRYSPKTKRSPLTRAHLTEVESRLERLEQLFLLIFPREDLDMILKMDSLQDIKALLTGLFVQDNVNKDAVTDRLASVETDMPLTLRQHRISATSSSEESSNKGQRQLTVSEFDSPWVWFGGEPGLNLLDLQPS", 1.53),
    ("M4D1 (peptide) MKLLSSIEQACDICRLKKLKCSKEKPKCAKCLKNNWECRYSPKTKRSPLTRAHLTEVESRLERLEQLFLLIFPREDLDMILKMDSLQDIKALLTGLFVQDNVNKDAVTDRLASVETDMPLTLRQHRISATSSSEESSNKGQRQLTVSEFRFPFHEMVREWESMGLERVRYAEP", -0.0396),
    ("B8A10 (peptide) MKLLSSIEQACDICRLKKLKCSKEKPKCAKCLKNNWECRYSPKTKRSPLTRAHLTEVESRLERLEQLFLLIFPREDLDMILKMDSLQDIKALLTGLFVQDNVNKDAVTDRLASVETDMPLTLRQHRISATSSSEESSNKGQRQLTVSEFVNWDAVVPWSELVALLDLQPS", 0.395),
]
